# Tested on: L929 cell line
# Test summary: Cytotoxicity MTS assay, L929 cell line
# Type: cell-based
# Protocol conditions: L929 cell line, 25μM, first assay
# Description: The positive compounds (IC50 < 100 μM) obtained from the primary Eg5 motor protein ATPase assay were tested for antiproliferative activity in vitro against Caco-2 cell line, Hela cell line, L929 cell line and T24 cell line by performing MTS assay. Cells were introduced into 96-well plates at a density of 1000 cells per well. After 24 h incubation, the cells were exposed with compounds at final concentrations ranging from 0.5 to 100 µM for 24 h. […]
Metric name: OD490 values, Well 2
Format: numeric value only, no unit, no commentary.

These solved cases illustrate the format of a correct answer.
>>> measured_number("CCOC(=O)c1[nH]c(C2NC(=O)NC(C)=C2C(=O)Nc2ccccc2OC)c(C(=O)OC)c1C (stereo not drawn) [D3]")
1.2473
>>> measured_number("CCOC(=O)c1c(C2NC(=O)NC(C)=C2C(=O)Nc2ccccc2C)[nH]c(C(=O)OC)c1C (stereo not drawn) [D2]")
1.5321
>>> measured_number("CCOC(=O)c1[nH]c(C2NC(=O)NC(C)=C2C(=O)Nc2ccc(Cl)cc2)c(C(=O)OCC)c1C (stereo not drawn) [D7]")
1.2839
>>> measured_number("CCOC(=O)c1c(C2NC(=O)NC(C)=C2C(=O)Nc2ccccc2)[nH]c(C(=O)OC)c1C (stereo not drawn) [D10]")
1.2091
>>> measured_number("CCOC(=O)c1[nH]c(C2NC(=O)NC(C)=C2C(=O)Nc2ccccc2C)c(C(=O)OC)c1C (stereo not drawn) [D4]")
0.8395

Task: GET /values?readout=OD490 values, Well 2&item= CCOC(=O)c1c(C2NC(=O)NC(C)=C2C(=O)Nc2ccccc2OC)[nH]c(C(=O)OC)c1C (stereo not drawn) [D1]
Result: 1.2849

Task: # iterate: CCOc1ccccc1C1NC(=S)NC(C)=C1C(=O)Nc1ccc(Cl)cc1 (stereo not drawn) [C9]
Result: 1.2406

Task: # iterate: CCOC(=O)c1[nH]c(C2NC(=S)NC(C)=C2C(=O)OC)c(C(=O)OCC)c1C (stereo not drawn) [D12]
Result: 1.1385

Task: # iterate: COC(=O)c1[nH]c(C2NC(=S)NC(C)=C2C(=O)c2ccccc2)c(C(=O)OC)c1C (stereo not drawn) [D14]
Result: 1.2795
